Give %Inh for every item shown.
# System: SIK2
# Measurement parameters: concentration: 1 μM, replicates: in singlicate; n = 1;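 note: KINOMEscan kinase panel screen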
Answers are plain numbers, in %.

Consider the following illustrative entries.
- Molecule: "Cn1cncc1C(=O)NC1CCN(c2ccnc(Nc3ccc(F)cc3)n2)C1 (stereo not shown) [GSK1379717]"
  %Inh, %: 0
- Molecule: "COc1nccc(-c2c(-c3ccc(F)cc3)ncn2CCCN2CCOCC2)n1 [SB-282852]"
  %Inh, %: 0
- Molecule: "COc1ccc(Nc2nccc(N3CCC(NC(=O)c4cc5ccccc5s4)C3)n2)cc1 (stereo not shown) [GSK1379738]"
  %Inh, %: 0

Answer for every listed entry: what is its %Inh? The entries follow.
1. COc1ccc2cc(-c3nc(-c4ccccc4C(C)C)[nH]c3-c3ccncc3)ccc2c1 [SB-660566]
2. Cn1cnc2c(N)ncnc21 [SKF-97623]
3. Cc1cccc2c(-c3ccncn3)c(-c3ccc(F)cc3)nn12 [GW515532]
4. COc1cc2ncnc(Nc3cccc(Br)c3)c2cc1OC.Cl [GI230329]

0
27
39
0

###

# Tested on: STK39
# Measurement parameters: concentration: 1 μM, replicates: in singlicate; n = 1
Measured quantity: %Inh (%)
Answers are plain numbers, in %.

Some solved cases for reference:
- Smiles code: "CNc1nc(-c2ccc3c(N)n[nH]c3c2)cc(N2C[C@@H](C(=O)Nc3ccccc3)CC[C@H]2C)n1"
  %Inh [%]: 6
- Smiles code: "CS(=O)(=O)CCNCc1nc(-c2ccc3ncnc(Nc4ccc(OCc5ccccc5)c(Cl)c4)c3c2)cs1.Cl"
  %Inh [%]: 4
- Smiles code: "COc1ccc(CSc2nnc(-c3ccc4c(c3)CCO4)o2)cc1"
  %Inh [%]: 0

// next entry
State its %Inh on STK39: Cn1cncc1-c1cc2c(Nc3ccc(OCc4ccccc4)cc3)ncnc2cn1
12

###

# Test system: CAMK2D
# Measurement parameters: concentration: 1 μM, replicates: in singlicate; n = 1
Measured quantity: %Inh (%)
One number for each entry, in %.

Field: example entries. Status: answers known.
- Molecule: "O=c1cc(N2CCOCC2)nc2n(Cc3cccc(Cl)c3Cl)c3ccccc3n12 [GSK2299009]"
  Reading unit: "%"
  Reported result: 21
- Molecule: "COc1cc2ncnc(Nc3cccc(Br)c3)c2cc1OC.Cl [GI230329]"
  Reading unit: "%"
  Reported result: 0
- Molecule: "Cc1ccc(-c2nc(Nc3ccncc3)c3ccccc3n2)s1 [GSK189015]"
  Reading unit: "%"
  Reported result: 12
- Molecule: "CCn1c(-c2ccccc2)nc2cnccc21 [SB-733416]"
  Reading unit: "%"
  Reported result: 0
- Molecule: "Fc1ccc(-c2nn3cccc(F)c3c2-c2ccncc2)cc1 [GW475620]"
  Reading unit: "%"
  Reported result: 6

Please give %Inh for each item listed below.
1. Fc1ccc(-c2nc[nH]c2-c2ccncc2)cc1 [SB-217360]
2. COC(=O)C(NC(=O)NC1CCN(c2ccnc(Nc3ccc(F)cc3)n2)C1)c1ccccc1 (stereo not shown) [GSK1379712]
3. COC(=O)C(Cc1ccccc1)NC(=O)NC1CCN(c2ccnc(Nc3ccc(F)cc3)n2)C1 (stereo not shown) [GSK1379714]
4. COc1cccc(CNC(=O)NC2CCN(c3ccnc(Nc4ccc(F)cc4)n3)C2)c1 (stereo not shown) [GSK1379723]
5. CNCc1ccc2nc(NC(=O)c3ccc(C(C)(C)C)cc3)cn2c1
6. COc1ccc(Nc2nccc(NCCNC(=O)Nc3cc(C)ccc3C)n2)cc1 [GSK1379899]
7. Cc1ccc(NC(=O)Nc2ccc(Cl)c(C(F)(F)F)c2)cc1-c1ccc(C(=O)Nc2ccncc2)cc1 [GSK1398470]

0
11
8
0
1
0
13

Need %Inh for each of these molecules.
1. CCn1c(-c2c(N)noc2C)nc2cnccc21 [SB-737856]
2. CCc1ccc(-c2ccc3c(c2)-c2n[nH]cc2S(=O)(=O)N3C)cc1
3. Nc1ncnc2occ(-c3ccc4c(c3)CCN4C(=O)Cc3cc(F)ccc3F)c12 [GSK2645446]
4. Cc1ccc(NC(=O)Nc2ccccc2)cc1-c1ccc(C(=O)Nc2ccncc2)cc1 [GSK1398471]
5. Cc1nccc(-c2c(-c3ccc(F)cc3)ncn2CCCN2CCOCC2)n1.Cl [SB-282975]
6. Nc1cccc(-c2ccc3c(N)n[nH]c3c2)n1 [GSK2192730]

0
21
14
0
7
20

Lab note: need %Inh with CAMK2D for entry COc1nccc(-c2c(-c3ccc(F)cc3)ncn2CCCN2CCOCC2)n1 [SB-282852] , please look it up.
0
